# System: HTT mRNA
# METHOD: Splicing assay (RT-qPCR) monitoring HTT splice variants, canonical (CJ) and alternative (AJ) junction
# Type: cell-based
# MEASUREMENT_PARAMETERS: increase in AJ mRNA, 50% response, A673 or K562 cell line, 24 hours
Counter-ions that a name gives are not always drawn.
The compounds listed here are annotated with their AC50.

Previously resolved entries follow.
compound="Cc1cn2cc(-c3nc4sc(C5CCNCC5)cc4s3)cc(F)c2n1 [Compound 130, hydrochloride]" measured_target="HTT mRNA" recorded_result="< 0.1 µM"
compound="Cn1cc2cc(-c3nc4sc(N5CCC56CCNC6)cc4s3)cc(F)c2n1 (centres unmarked) [Compound 200]" measured_target="HTT mRNA" recorded_result="> 10 µM"
compound="Cn1cc2cc(-c3cc4cn(C5CCNCC5)nc4s3)c(O)cc2n1 [Compound 209]" measured_target="HTT mRNA" recorded_result="1 to 10 µM"
compound="COc1c(-c2nc3sc(C4CCNCC4)cc3s2)cc(F)c2nn(C)cc12 [Compound 237]" measured_target="HTT mRNA" recorded_result="> 10 µM"
compound="Cn1cc2cc(-c3cc4cn(C5CCNCC5)nc4s3)c(F)cc2n1 [Compound 210]" measured_target="HTT mRNA" recorded_result="< 0.1 µM"
compound="CN(C)C1CCN(c2cc3sc(-c4cc(F)c5nn(C)cc5c4)nc3s2)CC1 [Compound 154]" measured_target="HTT mRNA" recorded_result="0.1 to 1 µM"
compound="Cn1cc2ccc(-c3nc4sc(C5CCNCC5)cc4s3)cc2n1 [Compound 127, hydrochloride]" measured_target="HTT mRNA" recorded_result="1 to 10 µM"

The compound Cn1cc2cc(-c3nc4sc(C5CCNCC5)cc4s3)c(O)c(F)c2n1 [Compound 206] showed AC50 equal to < 0.1 µM
